Target: T1, His-tagged HM1.24 antigen, residues N49-A163 of the extracellular domain (UniProt Q10589 49-163)
T1 chain: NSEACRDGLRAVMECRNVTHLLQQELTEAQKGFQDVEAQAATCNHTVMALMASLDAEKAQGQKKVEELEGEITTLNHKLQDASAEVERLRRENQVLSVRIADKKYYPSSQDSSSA
Test: Biacore
MEASURED_PARAMETER: koff

Field: example entries. Status: answers known.
## Task # get_value(readout='koff', item= HM1.24_H1.3_L2_Hybrid_S239D/I332E (antibody, V domains shown) VH: QVQLVQSGAEVKKPGASVKVSCKASGYTFTPYWMQWVRQAPGQGLEWMGSIFPGDSDTRYSQSFQGQVTISADKSISTAYMELSRLRSDDTAVYYCARGLRRGGYYFDYWGQGTLVTVSS VL: DIVMTQSPSSLSASVGDRVTITCQASQDVNTAVAWYQQKPDQSPKLLIYSASNRYTGVPDRITGSGSGTDFTLTISSLQAEDVAVYYCQQHYSTPFTFGSGTKLEIKR )
## Result 0.003 s⁻¹

## Task # get_value(readout='koff', item= HM1.24_H1.2 heavy chain variant with HM1.24_L4 light chain (antibody, V domains shown) VH: QVQLVQSGAEVKKPGASVKVSCKASGYTFTPYWMQWVRQAPGQGLEWMGSIFPGSGDTRYSQSFQGQVTISADKSISTAYMELSRLRSDDTAVYYCARGLRRGGYYFDYWGQGTLVTVSS VL: DIVMTQSPLSLPVTLGQPASISCKASQDVNTAVAWYLQKPGKSPKLLIYSASNRYTGVPDRITGSGSGTDFTLKISRVEAEDVGVYYCQQHYSTPFTFGSGTKLEIKR )
## Result 0.00203 s⁻¹

## Task # get_value(readout='koff', item= HM1.24_H1.1 heavy chain variant with HM1.24_L4 light chain (antibody, V domains shown) VH: QVQLVQSGAEVKKPGASVKVSCKASGYTFTPYWMQWVRQAPGQGLEWMGSIFPGEGDTRYSQSFQGQVTISADKSISTAYMELSRLRSDDTAVYYCARGLRRGGYYFDYWGQGTLVTVSS VL: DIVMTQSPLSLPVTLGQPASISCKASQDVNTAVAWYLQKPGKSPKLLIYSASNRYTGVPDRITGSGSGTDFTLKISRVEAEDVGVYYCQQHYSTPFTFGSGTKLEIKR )
## Result 0.00251 s⁻¹

## Task # get_value(readout='koff', item= HM1.24_H1.4_L2_Hybrid_S239D/I332E (antibody, V domains shown) VH: QVQLVQSGAEVKKPGASVKVSCKASGYTFTPYWMQWVRQAPGQGLEWMGSIFPGDADTRYSQSFQGQVTISADKSISTAYMELSRLRSDDTAVYYCARGLRRGGYYFDYWGQGTLVTVSS VL: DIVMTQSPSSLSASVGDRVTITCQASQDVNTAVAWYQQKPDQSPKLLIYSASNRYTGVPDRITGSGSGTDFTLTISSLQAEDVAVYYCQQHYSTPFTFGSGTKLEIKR )
## Result 0.00352 s⁻¹

---
## Task # get_value(readout='koff', item= HM1.24_H2L4 (antibody, V domains shown) VH: EVQLVESGGGLVKPGGSLRLSCAASGYTFTPYWMQWVRQAPGKGLEWMGSIFPGDGDTRYSQSFQGQVTISADKSISTAYMELSSLRSEDTAVYYCARGLRRGGYYFDYWGQGTLVTVSS VL: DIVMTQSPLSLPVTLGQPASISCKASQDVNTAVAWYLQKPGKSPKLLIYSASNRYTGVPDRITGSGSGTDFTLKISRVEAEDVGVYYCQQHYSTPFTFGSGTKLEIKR )
## Result 0.00418 s⁻¹
